Molecular target: human GPR119 (Homo sapiens)
Sequence (Q8TDV5 1-335): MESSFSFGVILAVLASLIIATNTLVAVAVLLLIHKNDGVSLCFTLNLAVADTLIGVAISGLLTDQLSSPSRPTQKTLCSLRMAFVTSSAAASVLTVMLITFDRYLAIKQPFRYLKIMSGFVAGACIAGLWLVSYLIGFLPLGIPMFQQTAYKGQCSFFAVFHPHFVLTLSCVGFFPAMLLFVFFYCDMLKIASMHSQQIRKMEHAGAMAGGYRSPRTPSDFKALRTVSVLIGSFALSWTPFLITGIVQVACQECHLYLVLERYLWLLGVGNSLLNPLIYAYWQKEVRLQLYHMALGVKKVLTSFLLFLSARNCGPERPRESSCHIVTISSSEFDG
Experiment: Intracellular cAMP increase in human GPR119 introduced cells (Pharmacological Experiments 1 and 2)
Type: cell-based
Conditions: Table 13; Pharmacological experiment 2, method similar to Example 61; read-out: EC50
Measured endpoint: EC50 (nM)

{"Compound": "CC(C)OC(=O)N1CC=C(c2cnc(Cn3ccc4c(F)c(S(C)(=O)=O)c(F)cc43)cn2)C(C)C1 (stereo not shown)", "Unit": "nM", "Data value": 137}
{"Compound": "Fc1cc(-n2cnnn2)cc2ccn(Cc3cnc(C4CCN(c5ncc(Br)cn5)CC4)cn3)c12", "Unit": "nM", "Data value": 14.2}
{"Compound": "CCc1cnc(N2CCC(c3cnc(Cn4ccc5cc(-n6cnnn6)cc(F)c54)cn3)CC2)nc1", "Unit": "nM", "Data value": 3.1}
{"Compound": "CS(=O)(=O)c1cc(F)c2c(ccn2Cc2cnc(C3CCN(c4ncc(Br)cn4)CC3)cn2)c1", "Unit": "nM", "Data value": 5.4}

###

biological target: human GPR119 (Homo sapiens); assay: Intracellular cAMP increase in human GPR119 introduced cells (Pharmacological Experiments 1 and 2); type: cell-based; settings: Table 12; Flp-in T-Rex-293 cells stably expressing hGPR119, intracellular cAMP, 37° C. for 30 minutes; read-out: EC50
pEC50: −log10 of the molar value.
Everything with pEC50 lower than 7 is Not fulfilled; everything else, including exactly 7, is Fulfilled.

{"Compound": "CC(C)(C)OC(=O)N1CCC(c2cnc(Cn3ccc4cc(S(C)(=O)=O)ccc43)cn2)CC1 [Example 9]", "Class label": "Fulfilled"}
{"Compound": "CC(C)(C)OC(=O)N1CCC(c2cnc(COc3ccc(S(C)(=O)=O)cc3)nc2)CC1 [Example 1]", "Class label": "Not fulfilled"}

###

Molecular target: human GPR119 (Homo sapiens)
Experiment: Intracellular cAMP increase in human GPR119 introduced cells (Pharmacological Experiments 1 and 2)
Type: cell-based
Description: The GPR119 agonist effect is studied by measuring the effect of an analyte on increase of intracellular amount of cAMP in human GPR119 introduced cells. The testing method is described below. Human GPR119 gene (NM 178471) is purchased from ATCC (ATCC No. 10807349), and is amplyfied according to PCR to form BamHI site at 5′ side and Apa I site at 3′ side. The forward side primer is […] (sequence No. 1), and the reverse side primer is […] (sequence No. 2). The PCR conditions are described below. […]
Measured endpoint: EC50 (nM)

{"Compound": "CC(C)(C)OC(=O)N1CC=C(c2cnc(COc3ccc(-n4cnnn4)cc3F)cn2)CC1", "Data value": 56.4}
{"Compound": "CC(C)(C)OC(=O)N1CCC(c2cnc(COc3ccc(S(C)(=O)=O)cc3)cn2)CC1", "Data value": 74.6}
{"Compound": "CC(C)OC(=O)N1CC=C(c2cnc(Cn3ccc4cc(S(C)(=O)=O)c(F)c(F)c43)cn2)C(C)C1 (stereo not shown)", "Data value": 35.7}
{"Compound": "CC(C)(C)OC(=O)N1CCC(c2cnc(Cn3ccc4cc(-n5cnnn5)cc(F)c43)cn2)CC1", "Data value": 2.9}
{"Compound": "CC(C)OC(=O)N1CCC(c2cnc(Cn3ccc4cc(-n5cnnn5)cc(F)c43)nc2)CC1", "Data value": 17.4}
{"Compound": "CC(C)OC(=O)N1CCC(c2cnc(Cn3ccc4cc(-n5cnnn5)cc(F)c43)cn2)CC1", "Data value": 16.5}
{"Compound": "CC1CN(C(=O)OC(C)(C)C)CC=C1c1cnc(Cn2ccc3cc(S(C)(=O)=O)c(F)c(F)c32)cn1 (stereo not shown)", "Data value": 21.4}
{"Compound": "CC1CN(C(=O)OC(C)(C)C)CC=C1c1cnc(Cn2ccc3c(F)c(S(C)(=O)=O)c(F)cc32)cn1 (stereo not shown)", "Data value": 82.8}
{"Compound": "CC(C)(C)OC(=O)N1CCC(c2cnc(Cn3ccc4cc(S(C)(=O)=O)cc(F)c43)cn2)CC1", "Data value": 7.6}
{"Compound": "CC(C)(C)OC(=O)N1CCC(c2cnc(Cn3ccc4cc(-n5cnnn5)cc(F)c43)nc2)CC1", "Data value": 30.1}
{"Compound": "CC(C)(C)OC(=O)N1CCC(c2cnc(Cn3ccc4cc(S(C)(=O)=O)cnc43)nc2)CC1", "Data value": 95}
{"Compound": "CC(C)(C)OC(=O)N1CC=C(c2cnc(Cn3ccc4cc(S(C)(=O)=O)c(F)c(F)c43)cn2)CC1", "Data value": 21.9}
{"Compound": "CC(C)(C)OC(=O)N1CCC(c2cnc(Cn3ccc4cc(S(C)(=O)=O)ccc43)nc2)CC1", "Data value": 62.4}
{"Compound": "CC(C)(C)OC(=O)N1C2CCC1CC(c1cnc(COc3ccc(S(C)(=O)=O)cc3)cn1)C2 (stereo not shown)", "Data value": 67.3}
{"Compound": "CC(C)(C)OC(=O)N1CC=C(c2cnc(COc3ccc(S(C)(=O)=O)cc3)cn2)CC1", "Data value": 76.5}
{"Compound": "CC(C)(C)OC(=O)N1C2C=C(c3cnc(COc4ccc(S(C)(=O)=O)cc4)cn3)CC1CC2 (stereo not shown)", "Data value": 99.8}

###

target: human GPR119 (Homo sapiens); experiment: Intracellular cAMP increase in human GPR119 introduced cells (Pharmacological Experiments 1 and 2); format: cell-based; conditions: Table 12; Flp-in T-Rex-293 cells stably expressing hGPR119, intracellular cAMP, 37° C. for 30 minutes; read-out: EC50

{"Molecule": "CC1CN(C(=O)OC(C)(C)C)CC=C1c1cnc(COc2ccc(S(C)(=O)=O)c(F)c2F)nc1 (centres unmarked)", "EC50, nM": 111}
{"Molecule": "CC1CN(C(=O)OC(C)(C)C)CC=C1c1cnc(COc2ccc(-n3cncn3)cc2)cn1 (centres unmarked)", "EC50, nM": 124}
{"Molecule": "CC1CN(C(=O)OC(C)(C)C)CC=C1c1cnc(Cn2ccc3cc(S(C)(=O)=O)cnc32)cn1 (centres unmarked)", "EC50, nM": 126}
{"Molecule": "CC(C)(C)OC(=O)N1CC=C(c2cnc(COc3ccc(-n4cncn4)cc3)cn2)CC1", "EC50, nM": 130}
{"Molecule": "CC(C)(C)OC(=O)N1CC=C(c2cnc(COc3ccc(S(C)(=O)=O)c(F)c3F)cn2)CC1", "EC50, nM": 110}
